The measured values listed here are drawn from PubChem BioAssay AID1645858.

- Target Of Assay: OTU domain-containing protein 3 (Homo sapiens) (UniProt Q5T2D3)
- Sequence (Q5T2D3 whole entry, looked up, the tested form may be a part): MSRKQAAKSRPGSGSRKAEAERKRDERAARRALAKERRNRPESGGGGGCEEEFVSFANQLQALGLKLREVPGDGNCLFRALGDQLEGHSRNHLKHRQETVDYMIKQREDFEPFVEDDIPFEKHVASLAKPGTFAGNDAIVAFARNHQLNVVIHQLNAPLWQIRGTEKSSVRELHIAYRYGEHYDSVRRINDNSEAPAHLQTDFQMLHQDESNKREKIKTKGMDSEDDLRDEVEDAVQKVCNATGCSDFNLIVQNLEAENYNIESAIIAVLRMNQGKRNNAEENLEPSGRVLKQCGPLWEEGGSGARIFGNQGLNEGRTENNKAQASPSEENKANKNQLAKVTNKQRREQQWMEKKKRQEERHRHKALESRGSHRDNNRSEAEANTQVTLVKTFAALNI
- Experiment Notes: blocks human OTUD3 ubiquitin-rhodamine cleavage (AID 1645858)
- Setup Conditions: purified OTUD3, Ub-rhodamine fluorescence, 2 h; at 25 µM; hits give high values
In all, about 47,000 compounds went through this assay and about 330 (0.7%) were called active. This excerpt belongs to a sample that is enriched for actives.
Recorded measurements of inhibition, one per entry

{"columns": ["Compound", "Unit Spec", "inhibition"],
 "data": [
  ["COCCN(C(=O)CCC(=O)Nc1ccccn1)C(C(=O)NCC1CCCO1)c1ccc(C)cc1 (stereo unspecified)", "%", 12.3],
  ["Cc1nc(-c2ncc[nH]2)cc(C2CCCCN2S(=O)(=O)N(C)C)n1 (stereo unspecified)", "%", -4.61],
  ["O=C(Cn1c(=O)n(Cc2ccc3c(c2)OCO3)c(=O)c2ccccc21)NCc1ccco1", "%", 0.529],
  ["O=C(CCc1nnc2n(CCc3ccccc3)c(=O)c3ccccc3n12)N1CCOCC1", "%", 4.98],
  ["Cc1ccccc1S(=O)(=O)NCc1nc2cccnc2n1C1CC1", "%", -1.25],
  ["COc1ccc(/C=C/C(=O)Nc2ccc3c(c2)OCCO3)cc1Br", "%", -13.2],
  ["COc1cccc(NC(=O)C(Sc2cccc(NC(=O)c3ccccc3F)c2)c2ccccc2)c1 (stereo unspecified)", "%", 15.7],
  ["Cc1cc(C(=O)N2CCCCC2c2[nH]ncc2C)c2c(C)noc2n1 (stereo unspecified)", "%", 11.6],
  ["O=C(NCCc1ccccc1)c1ccc2c(=O)nc3c(-c4ccccc4F)n[nH]n3c2c1", "%", -7.12],
  ["N#Cc1ccc(NC(=O)Nc2cccn(Cc3ccccc3F)c2=O)cc1", "%", 37.7],
  ["O=C(N[C@@H]1C[C@@H](Oc2cccnc2)[C@H](O)[C@H]1N1CCCCC1)c1ccccn1", "%", -9.39],
  ["Clc1ccc(C2NC3=NCN(Cc4ccco4)CN3c3nc4ccccc4n32)cc1 (stereo unspecified)", "%", 11.6],
  ["CC1CN(S(=O)(=O)c2cccc(Cl)c2)Cc2ccccc2N1C (stereo unspecified)", "%", -2.48],
  ["O=C(NC(C(=O)N1CCCc2ccccc21)c1ccccc1)c1cnccn1 (stereo unspecified)", "%", 14.1],
  ["COCCn1cc2c3c(cccc31)CN(C(=O)c1cnccn1)CC2", "%", -12.8],
  ["Cc1nn(-c2cccc(F)c2)c2c1c(C)c(CCC(=O)NCc1ccccn1)c(=O)n2C", "%", 8.09],
  ["COc1ccc(CC2c3cc(OC)c(OC)cc3CCN2C(=O)c2ccc(C)c(Cl)c2)cc1OC (stereo unspecified)", "%", 1.03],
  ["O=C(Nc1nnc(-c2cccc([N+](=O)[O-])c2)o1)C1CCN(S(=O)(=O)c2ccc3c(c2)CCC3)CC1", "%", 30.3],
  ["COc1ccc(Cl)cc1C(=O)NCC(c1ccsc1)N1CCOCC1 (stereo unspecified)", "%", -5.99],
  ["O[C@H]1[C@H](O)[C@H](Oc2cccc(F)c2)CC[C@H]1NCc1ccncc1", "%", 15.2],
  ["CCn1c(CNC(=O)c2ccco2)nnc1SCC(=O)Nc1cccc(F)c1", "%", 0.153],
  ["CCc1ccc(S(=O)(=O)Nc2cc(C(=O)Nc3ccccc3)ccc2OC)cc1", "%", -4],
  ["COc1cc(OC)cc(-c2nnc(NC(=O)c3ccc([N+](=O)[O-])o3)o2)c1", "%", 40.4],
  ["N#Cc1c(N)nc2c(c1N)CC(C(F)(F)F)O2 (stereo unspecified)", "%", -4.36],
  ["CCC(=O)N(C)CCc1noc(-c2[nH]c3ccc(C)cc3c2C)n1", "%", -11.5],
  ["Oc1ccc(O)c2c1C(O)CCC21Oc2cccc3cccc(c23)O1 (stereo unspecified)", "%", -11.1],
  ["CC(Sc1ncnc2ccccc12)C(=O)NCc1ccc2c(c1)OCO2 (stereo unspecified)", "%", 12.8],
  ["O=S(=O)(c1cccc2cccnc12)N1CCN(C2CCCCC2)CC1", "%", -6.63],
  ["Cc1c(Cl)ccc2sc(N(Cc3ccncc3)C(=O)c3ccco3)nc12", "%", -4.28],
  ["COc1ccccc1C(=O)Nc1ccc(N(c2ccccc2)C(C)C)cc1", "%", 2.72],
  ["COc1c(O)c2c(=O)cc(OC)c3c4c(OC)cc(=O)c5c(O)c(OC)c(CC(C)OC(=O)c6ccccc6)c(c(c1CC(C)OC(=O)Oc1ccc(O)cc1)c23)c54 (stereo unspecified)", "%", -24.8],
  ["Clc1cc2nc(N3CCN(c4ccccn4)CC3)c3nncn3c2cc1Cl", "%", 44.6],
  ["Nc1c(C(=O)CN2CCc3ccccc32)c(=O)[nH]c(=O)n1C1CC1", "%", -63.2],
  ["Cc1cc(-c2ccc(S(=O)(=O)Nc3cccc(CN4CCCC4)c3)s2)n[nH]1", "%", -13.6],
  ["Cc1cccc(-c2c3c(=O)n(C)c(=O)n(C)c3cn2Cc2ccc(F)cc2)c1", "%", -12.7],
  ["CCOC(=O)N1CCN(c2nc3c(c(=O)[nH]c(=O)n3C)n2CCSc2ncccn2)CC1", "%", 13.2],
  ["O=C(Cn1cccc(-c2nc(-c3ccccc3)no2)c1=O)Nc1ccccc1F", "%", 6.4],
  ["CC(C)(C)C(=O)c1cn(CC(=O)N2CCc3ccccc3C2)c2ccccc12", "%", 0.535],
  ["O=C(c1cc2ccc(F)cc2[nH]1)N1CCOCC(Cc2ccncn2)C1 (stereo unspecified)", "%", -7.16],
  ["O=C(Cc1c[nH]c2ccccc12)NC1(c2nc(-c3ccncc3)no2)CCCCC1", "%", -15.9],
  ["COc1cccc(-c2ocnc2C(=O)NCc2ccc(OC)c(OC)c2)c1", "%", -12.9]
]}

====

- Target Of Assay: OTU domain-containing protein 3 (Homo sapiens) (UniProt Q5T2D3)
- Experiment Notes: blocks human OTUD3 ubiquitin-rhodamine cleavage (AID 1645858)
- Setup Conditions: purified OTUD3, Ub-rhodamine fluorescence, 2 h; at 25 µM; hits give high values
About 330 (0.7%) of roughly 47,000 compounds were called active. For the sample, actives were picked, then their nearest neighbours and some compounds at random.
Property Measured: inhibition (%)

{"columns": ["Compound", "Unit Spec", "Test Result"],
 "data": [
  ["CCN(C(=O)c1cncc(Br)c1)c1nc2ccccc2s1", "%", -0.0268],
  ["Cc1nc(NC(=O)c2ccc(F)cc2Cl)sc1-c1ccccc1", "%", -3.32],
  ["C[C@@H]1CC[C@H]2C(CN3CCCC(C)(C)C3)C(=O)O[C@]23[C@H]1CC[C@@]1(C)O[C@@H]31 (stereo partly specified)", "%", -0.238],
  ["O=C1NC2(CCN(C(=O)NCc3ccccc3)CC2)Nc2c(Cl)cccc21", "%", -5.72],
  ["CCOc1ccccc1Oc1nnnn1-c1ccccc1", "%", 23],
  ["CC(Oc1ccccc1)C(=O)Nc1ccc(-c2cn3cccnc3n2)cc1 (stereo unspecified)", "%", 4.02],
  ["CCN1C(=O)C[C@@H](C(=O)NCc2nc(C)no2)[C@@H]1c1ccccc1C", "%", 1.87],
  ["CNc1nc(N2CCCCCC2)nc(-n2cnc(SC)n2)n1", "%", -0.432],
  ["COCCN1[C@H]2CCN(Cc3ccccn3)CC[C@@H]2Oc2ccccc2S1(=O)=O", "%", 7.81],
  ["Cc1nc(Nc2ncccn2)cc(C2CCCN2S(=O)(=O)N(C)C)n1 (stereo unspecified)", "%", -8.82],
  ["NS(=O)(=O)c1cccc(CNC(=O)C2(c3ccccc3)CCC2)c1", "%", 0.73]
]}

====

- Target Of Assay: OTU domain-containing protein 3 (Homo sapiens) (UniProt Q5T2D3)
- Experiment Notes: blocks human OTUD3 ubiquitin-rhodamine cleavage (AID 1645858)
- Setup Conditions: purified OTUD3, Ub-rhodamine fluorescence, 2 h; at 25 µM; hits give high values
Screen size: about 47,000 compounds; about 330 (0.7%) were called active. What follows is part of a selection rich in actives, with near analogues and random picks from the rest.
Recorded measurements of inhibition, one per entry

{"columns": ["Compound", "Unit Spec", "inhibition"],
 "data": [
  ["COc1cc(C2c3[nH]c4ccccc4c3C[C@@H]3C(=O)N(CCC4=CCCCC4)CC(=O)N23)cc(OC)c1OC (stereo not given in full)", "%", -46.8],
  ["Cc1cc(C)c2nc3c(cc2c1)CN(Cc1ccco1)C(=O)O3", "%", 19.2],
  ["CC(NC(=O)c1ncoc1-c1ccc(F)cc1)c1ccccn1 (stereo not given)", "%", 3.88],
  ["Cc1ccc(NS(=O)(=O)c2ccc3c(c2)NC(=O)CC(=O)N3)cc1F", "%", -1.08],
  ["Cc1nc2n(n1)CCN(C(=O)c1cc(-c3cccs3)[nH]n1)C2", "%", 0.034]
]}
